Each recorded value in this set is attributed to paper PMC10872613.

# EXPERIMENTAL_TARGET: C1r purified from human serum (Homo sapiens, UniProt P00736)
# Sequence (P00736 18-463 limits assumed): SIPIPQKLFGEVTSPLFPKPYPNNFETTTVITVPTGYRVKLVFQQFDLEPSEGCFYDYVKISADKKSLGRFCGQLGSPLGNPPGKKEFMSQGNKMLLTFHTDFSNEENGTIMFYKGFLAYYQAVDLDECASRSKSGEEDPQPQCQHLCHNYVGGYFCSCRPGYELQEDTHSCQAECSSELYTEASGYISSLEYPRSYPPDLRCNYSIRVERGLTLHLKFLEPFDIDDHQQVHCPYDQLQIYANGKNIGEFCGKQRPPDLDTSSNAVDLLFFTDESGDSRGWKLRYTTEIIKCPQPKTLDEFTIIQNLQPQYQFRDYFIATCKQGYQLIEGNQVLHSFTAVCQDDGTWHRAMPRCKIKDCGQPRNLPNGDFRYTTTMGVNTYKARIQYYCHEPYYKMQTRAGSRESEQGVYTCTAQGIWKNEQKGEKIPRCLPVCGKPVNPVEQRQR
# Sequence (P00736 464-705 limits assumed): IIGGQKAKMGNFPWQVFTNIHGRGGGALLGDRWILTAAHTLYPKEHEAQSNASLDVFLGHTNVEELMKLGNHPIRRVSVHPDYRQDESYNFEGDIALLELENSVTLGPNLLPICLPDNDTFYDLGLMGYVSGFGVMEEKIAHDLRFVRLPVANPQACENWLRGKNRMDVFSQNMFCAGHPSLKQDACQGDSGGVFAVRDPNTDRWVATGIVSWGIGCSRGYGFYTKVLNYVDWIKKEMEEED
# PROCEDURE_SUMMARY: C1r chromogenic ZGR assay
# Format: biochemical
MEASURED_METRIC: pKi
# pKi = -log10(concentration in molar units)

Find the measured pKi of N=C(N)c1ccc(N2CCN(c3ccccc3)CC2)nc1 and report it.
3.07

###

# EXPERIMENTAL_TARGET: thrombin (Homo sapiens)
# PROCEDURE_SUMMARY: Thrombin chromogenic ZGR assay
# Format: biochemical
MEASURED_METRIC: Ki

Find the measured Ki of N=C(N)c1ccc(N2CCN(c3ccccc3)CC2)nc1 [A1] and report it.
51.2 µM

###

# EXPERIMENTAL_TARGET: C1s (Homo sapiens, UniProt P09871)
# Sequence (P09871 16-437 limits assumed): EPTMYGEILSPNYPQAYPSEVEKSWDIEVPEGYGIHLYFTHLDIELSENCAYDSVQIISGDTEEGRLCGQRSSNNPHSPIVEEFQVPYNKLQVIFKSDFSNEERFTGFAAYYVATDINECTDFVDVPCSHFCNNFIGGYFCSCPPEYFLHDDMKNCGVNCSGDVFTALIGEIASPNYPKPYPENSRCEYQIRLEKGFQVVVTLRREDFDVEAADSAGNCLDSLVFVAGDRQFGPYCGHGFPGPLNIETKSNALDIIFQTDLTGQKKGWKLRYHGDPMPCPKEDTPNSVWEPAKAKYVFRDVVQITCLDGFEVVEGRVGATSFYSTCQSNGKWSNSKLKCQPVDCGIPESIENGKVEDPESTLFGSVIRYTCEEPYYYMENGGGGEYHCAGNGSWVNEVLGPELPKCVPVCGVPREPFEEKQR
# Sequence (P09871 438-688 limits assumed): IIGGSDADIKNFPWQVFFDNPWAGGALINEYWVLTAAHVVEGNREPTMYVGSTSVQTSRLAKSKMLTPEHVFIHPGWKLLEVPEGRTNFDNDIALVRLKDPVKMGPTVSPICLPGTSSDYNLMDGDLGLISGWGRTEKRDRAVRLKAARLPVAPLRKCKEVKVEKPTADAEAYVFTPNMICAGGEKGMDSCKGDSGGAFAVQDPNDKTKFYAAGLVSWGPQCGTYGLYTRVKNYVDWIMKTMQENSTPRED
pIC50: −log10 of the molar value.
MEASURED_METRIC: pIC50

Find the measured pIC50 of N=C(N)c1ccc(N2CCN(c3ccccc3)CC2)nc1 [A1] and report it.
~4.07

###

# EXPERIMENTAL_TARGET: mouse C1s-2SP (Mus musculus, UniProt Q8CG14)
# Sequence (Q8CG14 357-423 limits assumed): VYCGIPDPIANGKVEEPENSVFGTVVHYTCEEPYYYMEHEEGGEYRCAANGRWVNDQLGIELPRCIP
# Sequence (Q8CG14 438-688 limits assumed): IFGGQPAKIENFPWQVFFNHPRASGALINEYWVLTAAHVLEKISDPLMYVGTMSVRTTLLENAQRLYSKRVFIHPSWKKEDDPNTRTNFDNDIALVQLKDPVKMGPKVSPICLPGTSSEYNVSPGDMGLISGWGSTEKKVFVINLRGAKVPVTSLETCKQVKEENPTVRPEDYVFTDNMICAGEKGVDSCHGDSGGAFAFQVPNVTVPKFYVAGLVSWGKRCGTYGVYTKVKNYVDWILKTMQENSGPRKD
MEASURED_METRIC: Ki (µM)
Write down the numeric answer in µM and omit the unit.

Find the measured Ki of N=C(N)c1ccc(N2CCN(c3ccccc3)CC2)nc1 and report it.
24.6
